assay: Toxicity liver stage against HepG2, at 10uM; type: cell-based; set-up: test concentration 10 uM, cell line HepG2-A16-CD81EGFP; conditions: human, HepG2-A16-CD81EGFP cells; read-out: INHIBITION
metric: cytotoxicity at 10 µM (%)
Write the value in % as a bare number.

Query :: Given the entry Cc1cc(C)c(CNC(=O)C2COc3ccccc3C2)c(=O)[nH]1 (configuration not stated) , report its measured cytotoxicity at 10 µM.
Result :: -0.102

Query :: And for `CC(=O)N1CCC(c2cncc(Oc3ccccc3)n2)CC1` ?
Result :: 6.05

Query :: Please answer likewise for `Cn1nc(C#N)c2c1CN(C(=O)c1nc[nH]n1)CCC2`
Result :: -100

Query :: Then CC(C)N(C)C(=O)C1CCC(=O)N(CCc2cccc(F)c2)C1 (configuration not stated) ?
Result :: -4.57

Query :: Next up: `CC(C)[C@@H]1CN(Cc2ccccn2)C[C@H]1NS(=O)(=O)N(C)C`
Result :: -0.869
